Source listed as paper PMC8400033.

Test system: SKOV3 (human ovarian carcinoma)
Assay: CCK-8 antiproliferative assay, SKOV3 cell line
Settings: Homo sapiens, SK-OV-3, read-out: IC50 SKOV3, SKOV3 cell line, CCK-8
VALUE KIND: IC50 (µM)

Take a look at these entries with their results.
>  <COMPOUND>
Cc1ccc(NC2=CC(CP(=O)(c3ccccc3)c3ccccc3)N(c3ccc(C)cc3)C2=O)cc1 (stereo not drawn)

>  <IC50 [µM]>
10.8

$$$$
>  <COMPOUND>
COc1ccc(NC2=CC(c3ccccc3)N(c3ccc(OC)cc3)C2=O)cc1 (stereo not drawn)

>  <IC50 [µM]>
6.84

$$$$

I = Cc1ccc(NC2=CC(c3ccc([N+](=O)[O-])cc3)N(c3ccc(C)cc3)C2=O)cc1 (stereo not drawn)
II = Cc1ccc(NC2=CC(c3ccccc3)N(c3ccc(C)cc3)C2=O)cc1 (stereo not drawn)
Req: Larger number for IC50: I , or II ? The response must carry the label of the picked entry.
Resp: I
